tested on: HCC-2998 colon; test: NCI tumour cell line growth inhibition, 48 h
*1 amine or outer side, *2 acyl side, *3 side chain or, on linkers, in order; H or OH if unused. Where a SMILES comes first, the peptide text is derived from it. [ ]: non-standard residue; d: D form. ξ: configuration not given here. X21 = CC[C@@H](C)C(N[*:1])C(=O)[*:2]; ξR = N=C(N)NCCCC(N)C(=O)O; ξI = CCC(C)C(N)C(=O)O; ξL = CC(C)CC(N)C(=O)O; ξK = NCCCCC(N)C(=O)O; ξV = CC(C)C(N)C(=O)O; ξA = CC(N)C(=O)O
The entries below come with measured log10(TGI) values attached.
Measurement Name: log10(TGI) (log10 of the value in µM)

>  <Compound>
O=C(/C=C/c1ccccc1Cl)c1ccc(Cl)cc1Cl

>  <Experimental Target>
HCC-2998 colon

>  <Measurement Name>
log10(TGI)

>  <Value Measured>
1.52

$$$$
>  <Compound>
O=C1CCS/C(=N\S(=O)(=O)c2ccc(N3N=C4c5ccccc5CC4C3c3cccs3)cc2)N1C(=O)c1ccccc1 (stereo not drawn)

>  <Experimental Target>
HCC-2998 colon

>  <Measurement Name>
log10(TGI)

>  <Value Measured>
1.51

$$$$
>  <Compound>
C=C1C(=O)O[C@@H]2[C@H](O)[C@@H](C)[C@@H]3C=CC(=O)[C@@]3(C)[C@H](OC(=O)C=C(C)C)[C@H]12

>  <Experimental Target>
HCC-2998 colon

>  <Measurement Name>
log10(TGI)

>  <Value Measured>
0.51

$$$$
>  <Compound>
CNCCCNCCCN1C(=O)c2ccc3c4c(ccc(c24)C1=O)C(=O)N(CCCNCc1ccccc1OC)C3=O

>  <Experimental Target>
HCC-2998 colon

>  <Measurement Name>
log10(TGI)

>  <Value Measured>
0.81

$$$$
>  <Compound>
N#C/C(=C\c1ccc(Br)cc1)n1nnc2ccccc21

>  <Experimental Target>
HCC-2998 colon

>  <Measurement Name>
log10(TGI)

>  <Value Measured>
0.52

$$$$
>  <Compound>
CCC(C)C1NC(=O)C(CC(C)C)NC(=O)C(C)NC(=O)C(C(C)C)NC(=O)C(CCCCN)NC(=O)C(CC(C)C)NC(=O)C(C(C)C)NC(=O)[C@H](C)NC(=O)C(C(C)CC)NC(=O)C(CCCN=C(N)N)NC(=O)C(CCCCN)NC(=O)C(CCCN=C(N)N)NC(=O)C(CCCCN)NC(=O)C([C@H](C)CC)NC(=O)C(CCCCN)NC1=O (stereo partly drawn) (cyclo(A[ξV][ξL][ξK][ξV][ξA][ξL][ξI][ξK][X21][ξK][ξR][ξK][ξR][ξI]))

>  <Experimental Target>
HCC-2998 colon

>  <Measurement Name>
log10(TGI)

>  <Value Measured>
0.63

$$$$
>  <Compound>
COc1ccccc1/C=C/C(=O)/C=C/c1ccccc1OC

>  <Experimental Target>
HCC-2998 colon

>  <Measurement Name>
log10(TGI)

>  <Value Measured>
0.53

$$$$
>  <Compound>
CS(=O)(=O)OCCN(CCOS(C)(=O)=O)c1ccc(C=O)cc1

>  <Experimental Target>
HCC-2998 colon

>  <Measurement Name>
log10(TGI)

>  <Value Measured>
0.92

$$$$

Source: PubChem BioAssay (NCI)
